Value source: paper PMC7481701

target: ChTL activity of the purified human 20S proteasome (Homo sapiens, UniProt P28074)
measured_endpoint: IC50

[[record]]
compound = "NCCNCc1c2ccccc2cc2ccccc12 [N-9-anthracenylmethyl-1,2-ethanediamine, reference compound]"
measured_endpoint = "IC50"
observed_result = "~10 µM"

